meta.source: patent EP4768499A1

# maps each entry to its Papp A→B
protocolDescription: Membrane permeability test using Caco-2 cells with preincubation
Format: in vitro ADME
statedConditions: Caco-2; preincubation 20 to 24 hours; Apical FaSSIF/HBSS pH 6.0, Basal HBSS 4% BSA pH 7.4; 180 minutes; read-out: Caco2 Papp
Starred links: 1 amine or outer side, 2 acyl side, 3 side chain; linkers in the order of their positions; H or OH if unused. Positions of bridges follow the written chain, without caps; N, C: chain ends. Non-standard residues stand in square brackets, D forms with d. Residues, ends and D or L forms follow the SMILES beside them. *: point of attachment. NMedβ3hAla = C[C@H](CC(=O)[*:2])N(C)[*:1]; NMeF = CN[C@@H](Cc1ccccc1)C(=O)O; NMeGABA = CN(CCCC(=O)[*:2])[*:1]; NMeI = CC[C@H](C)[C@H](NC)C(=O)O; NMeT = CN[C@H](C(=O)O)[C@@H](C)O; hPhe = N[C@@H](CCc1ccccc1)C(=O)O; NMeβAla = CN(CCC(=O)[*:2])[*:1]; NMeD = CN[C@@H](CC(=O)O)C(=O)O; NMeL = CN[C@@H](CC(C)C)C(=O)O; NMeV = CN[C@H](C(=O)O)C(C)C; d(β3hA) = C[C@@H](N)CC(=O)O; NMeAbu = CC[C@H](NC)C(=O)O; NMeA = CN[C@@H](C)C(=O)O; Piperidide = C1CCN(*)CC1; Abu = CC[C@H](N)C(=O)O; Sar = CNCC(=O)O; tBu = CC(C)(C)*
Expressed in ×10⁻⁶ cm/s, but write only the number.

// solved cases for Papp A→B follow
{"molecule": "CC[C@H](C)[C@@H]1NC(=O)[C@H]([C@@H](C)CC)N(C)C(=O)[C@@H](C)NC(=O)C[C@@H](C(=O)N2CCCCC2)N(C)C(=O)[C@H](Cc2ccccc2)N(C)C(=O)[C@H](C(C)C)NC(=O)[C@H](C)N(C)C(=O)[C@H](CC(C)C)N(C)C(=O)[C@H](C)NC(=O)CN(C)C(=O)[C@H](CC(C)C)N(C)C(=O)[C@H](C)N(C)C(=O)[C@H](Cc2ccccc2)N(C)C1=O [pd153] ([dA][NMeI]I[NMeF][NMeA][NMeL][Sar]A[NMeL][NMeA]V[NMeF][NMeD]-Piperidide; lactam N-13)", "uom": "×10⁻⁶ cm/s", "Papp A→B": 0.2}
{"molecule": "CC[C@H](C)[C@@H]1NC(=O)[C@H](CC(C)C)N(C)C(=O)[C@H](CC(C)C)NC(=O)[C@H](C)N(C)C(=O)[C@H](Cc2ccccc2)N(C)C(=O)[C@@H]2CCCN2C(=O)[C@H](CC(C)C)N(C)C(=O)[C@H](CCc2ccccc2)NC(=O)CCN(C)C(=O)C[C@@H](C)NC(=O)[C@H](CC(C)C)N(C)C(=O)[C@H]([C@@H](C)O)NC(=O)[C@H](C)N(C)C(=O)[C@H](C(C)C)N(C)C1=O [pd056] (cyclo(I[NMeV][NMeA]T[NMeL][d(β3hA)][NMeβAla][hPhe][NMeL]P[NMeF][NMeA]L[NMeL]))", "uom": "×10⁻⁶ cm/s", "Papp A→B": 0.27}
{"molecule": "CC[C@H](C)[C@@H]1NC(=O)[C@H](CC(C)C)N(C)C(=O)[C@H](CC(C)C)NC(=O)[C@H](C)N(C)C(=O)C[C@@H](C(=O)N2CCCCC2)NC(=O)[C@H](CC(C)C)NC(=O)[C@@H]2CCCN2C(=O)[C@H](CC(C)C)N(C)C(=O)[C@H]([C@@H](C)O)NC(=O)[C@H]([C@@H](C)CC)N(C)C(=O)[C@H](Cc2ccccc2)N(C)C(=O)[C@H](C)NC(=O)[C@H](Cc2ccccc2)N(C)C(=O)[C@H](CC(C)C)NC1=O [pd027] ([NMeA]L[NMeL]IL[NMeF]A[NMeF][NMeI]T[NMeL]PLD-Piperidide; lactam N-14)", "uom": "×10⁻⁶ cm/s", "Papp A→B": 0.02}
{"molecule": "CC[C@@H]1NC(=O)[C@H]([C@@H](C)O)N(C)C(=O)[C@H](CC(C)C)N(C)C(=O)[C@H]([C@@H](C)CC)NC(=O)[C@H](Cc2ccccc2)N(C)C(=O)CN(C)C(=O)C[C@@H](C(=O)N2CCCCC2)NC(=O)[C@H](C(C)C)N(C)C(=O)[C@H](CC)NC(=O)[C@H](COC(C)(C)C)NC(=O)[C@H](C)N(C)C(=O)[C@H](CC)NC(=O)[C@H](CC(C)C)N(C)C(=O)[C@H](CCc2ccccc2)NC1=O [pd028] ([Sar][NMeF]I[NMeL][NMeT][Abu][hPhe][NMeL][Abu][NMeA]S(tBu)[Abu][NMeV]D-Piperidide; lactam N-14)", "uom": "×10⁻⁶ cm/s", "Papp A→B": 0.03}

Challenge: What value of measured Papp A→B is listed for CC[C@H](C)[C@@H]1NC(=O)[C@H](CC(C)C)N(C)C(=O)CCCN(C)C(=O)C[C@@H](C)N(C)C(=O)[C@H](CC(C)C)NC(=O)[C@H](CC)N(C)C(=O)[C@H](C(C)C)N(C)C(=O)[C@H](C)N(C)C(=O)[C@H](CC(C)C)N(C)C(=O)[C@H](COC(C)(C)C)NC(=O)[C@H](Cc2ccccc2)N(C)C(=O)[C@H](Cc2ccccc2)N(C)C(=O)CN(C)C1=O [pd143] (cyclo(I[Sar][NMeF][NMeF]S(tBu)[NMeL][NMeA][NMeV][NMeAbu]L[NMedβ3hAla][NMeGABA][NMeL])) ?
Response given: 4.73

Challenge: What value of measured Papp A→B is listed for CC[C@H](C)[C@@H]1NC(=O)[C@H](CC(C)C)N(C)C(=O)CN(C)C(=O)C[C@@H](C(=O)N2CCCCC2)NC(=O)[C@H](C)N(C)C(=O)CNC(=O)[C@H](C(C)C)N(C)C(=O)[C@H](C)N(C)C(=O)[C@H](Cc2ccccc2)N(C)C(=O)[C@H](C(C)C)NC(=O)[C@H](CC(C)C)NC(=O)[C@H](Cc2ccccc2)N(C)C(=O)[C@H]([C@@H](C)O)NC(=O)[C@H](CC(C)C)N(C)C1=O [pd039] ([Sar][NMeL]I[NMeL]T[NMeF]LV[NMeF][NMeA][NMeV]G[NMeA]D-Piperidide; lactam N-14) ?
Response given: 0.03

Challenge: What value of measured Papp A→B is listed for CC[C@H]1C(=O)N(C)[C@@H](CC(C)C)C(=O)N[C@@H]([C@@H](C)O)C(=O)N(C)[C@@H](C)C(=O)N(C)[C@@H](CC(C)C)C(=O)N[C@H](C(=O)N2CCCCC2)CC(=O)N(C)CCCC(=O)N[C@@H](CC(C)C)C(=O)N(C)[C@@H](CC(C)C)C(=O)N(C)[C@@H](C)C(=O)N(C)[C@@H](Cc2ccccc2)C(=O)N[C@@H](C)C(=O)N(C)[C@@H](Cc2ccccc2)C(=O)N1C [pd117] ([NMeGABA]L[NMeL][NMeA][NMeF]A[NMeF][NMeAbu][NMeL]T[NMeA][NMeL]D-Piperidide; lactam N-13) ?
Response given: 0.17
